assay_summary: Cytotoxicity, MTT assay, WI-38
Format: cell-based
assay_setup: human, WI-38 fibroblast cell line, read-out: WI-38 Cytotox (IC50)
pIC50: −log10 of the molar value.

smiles_representation: CC(=O)N[C@H]1CSSC[C@@H](C(N)=O)NC(=O)[C@H](C(C)C)NC(=O)[C@H](C)NC(=O)[C@H](Cc2c[nH]cn2)NC1=O
pIC50: < 4.00

* * *

System: PC-3
assay_summary: Cytotoxicity, MTT assay, PC-3
Type: cell-based, human
pIC50: −log10 of the molar value. Positions of bridges follow the written chain, without caps; N, C: chain ends. Residues, ends and D or L forms follow the SMILES beside them.
measurement_kind: pIC50

compound: CC[C@H](C)[C@@H]1NC(=O)[C@H](CC(=O)O)NC(=O)[C@H](C(C)C)NC(=O)[C@H](C)NC(=O)[C@H](Cc2c[nH]cn2)NC(=O)[C@H](C)NC(=O)[C@@H](NC(C)=O)CSSC[C@@H](C(N)=O)NC1=O (Ac-CAHAVDIC-NH2; disulfide 1-8)
measurement_kind: pIC50
experimental_value: < 4.00
//
compound: CC(=O)N[C@H]1CSSC[C@@H](C(N)=O)NC(=O)[C@H](C(C)C)NC(=O)CNC(=O)[C@H](Cc2c[nH]cn2)NC1=O [N—Ac—CHGVC—NH2, reference compound]
measurement_kind: pIC50
experimental_value: < 4.00
//
compound: CC(=O)N[C@H]1CSSC[C@@H](C(N)=O)NC(=O)[C@H](Cc2c[nH]cn2)NC(=O)CNC(=O)[C@H](C(C)C)NC1=O [N—Ac—CVGHC—NH2] (Ac-CVGHC-NH2; disulfide 1-5)
measurement_kind: pIC50
experimental_value: < 4.00

* * *

study_target: chick N-cadherin (Gallus gallus, UniProt P10288)
Construct: expressed in transfected cells; host or cells: 3T3 fibroblasts (monolayer); rat post-natal day 2-3 cerebellar neurons plated on top
Sequence (P10288 165-912): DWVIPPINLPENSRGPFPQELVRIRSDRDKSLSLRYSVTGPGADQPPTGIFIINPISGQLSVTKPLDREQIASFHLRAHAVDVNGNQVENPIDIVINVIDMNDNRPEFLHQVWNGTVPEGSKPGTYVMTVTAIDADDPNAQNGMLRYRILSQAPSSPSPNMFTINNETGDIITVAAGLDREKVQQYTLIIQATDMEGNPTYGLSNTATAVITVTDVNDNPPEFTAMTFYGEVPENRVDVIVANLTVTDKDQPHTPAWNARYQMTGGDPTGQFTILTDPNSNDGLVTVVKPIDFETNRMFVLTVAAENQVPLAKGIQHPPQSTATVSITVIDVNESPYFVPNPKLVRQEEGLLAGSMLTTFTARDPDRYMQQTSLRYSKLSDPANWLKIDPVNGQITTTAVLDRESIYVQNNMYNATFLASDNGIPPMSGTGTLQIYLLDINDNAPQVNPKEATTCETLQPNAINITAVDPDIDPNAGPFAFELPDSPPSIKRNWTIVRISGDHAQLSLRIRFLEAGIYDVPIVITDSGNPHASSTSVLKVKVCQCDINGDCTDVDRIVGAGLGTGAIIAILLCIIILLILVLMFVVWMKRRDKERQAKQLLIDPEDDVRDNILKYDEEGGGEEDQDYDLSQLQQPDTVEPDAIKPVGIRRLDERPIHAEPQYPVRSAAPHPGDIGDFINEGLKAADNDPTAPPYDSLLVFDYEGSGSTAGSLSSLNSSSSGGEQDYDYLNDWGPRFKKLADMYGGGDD
assay_summary: Neurite outgrowth of rat cerebellar neurons on N-cadherin expressing 3T3 monolayers (Example 15)
Type: cell-based
assay_setup: 250 μg/mL, 16-18 hours; read-out: % Inhibition of N-Cadherin Dependent Neurite Outgrowth
Positions of bridges follow the written chain, without caps; N, C: chain ends. Residues, ends and D or L forms follow the SMILES beside them. *: point of attachment. For = O=C*
Classify as follows. Reported inhibition at 250 µg/mL greater than or equal to 40%: Y. Reported inhibition at 250 µg/mL below: N.

molecule: CC(C)[C@@H]1NC(=O)[C@H](C)NC(=O)[C@H](Cc2c[nH]cn2)NC(=O)[C@@H](NS(C)(=O)=O)CSSC[C@@H](C(N)=O)NC1=O [CH3—SO2—NH—CHAVC—NH2]
label: Y
//
molecule: CC(C)[C@@H]1NC(=O)[C@H](C)NC(=O)[C@H](Cc2c[nH]cn2)NC(=O)[C@@H](NC=O)CSSC[C@@H](C(=O)N[C@@H](CO)C(N)=O)NC1=O [H—C(O)—NH—CHAVCS—NH2] (For-CHAVCS-NH2; disulfide 1-5 (inferred))
label: Y
//
molecule: CC(=O)N[C@H]1CSSC[C@@H](C(=O)N[C@@H](CO)C(=O)N[C@@H](CO)C(N)=O)NC(=O)[C@H](C(C)C)NC(=O)[C@H](C)NC(=O)[C@H](Cc2c[nH]cn2)NC1=O [N—Ac—CHAVCSS—NH2] (Ac-CHAVCSS-NH2; disulfide 1-5)
label: N
//
molecule: CC(=O)N[C@H]1CSSC[C@@H](C(=O)N[C@@H](CC(=O)O)C(N)=O)NC(=O)[C@H](C(C)C)NC(=O)[C@H](C)NC(=O)[C@H](Cc2c[nH]cn2)NC1=O [N—Ac—CHAVCD—NH2] (Ac-CHAVCD-NH2; disulfide 1-5)
label: N
//
molecule: CC(=O)N[C@H]1CSSC[C@@H](C(=O)N[C@@H](CO)C(N)=O)NC(=O)[C@H](C(C)C)NC(=O)[C@H](C)NC(=O)[C@H](Cc2c[nH]cn2)NC1=O [N—Ac—CHAVCS—NH2] (Ac-CHAVCS-NH2; disulfide 1-5)
label: N
//
molecule: CC(=O)N[C@H]1CSSC[C@@H](C(N)=O)NC(=O)[C@H](Cc2ccc(O)cc2)NC(=O)[C@H](C(C)C)NC(=O)[C@H](C)NC(=O)[C@H](Cc2c[nH]cn2)NC1=O [N—Ac—CHAVYC—NH2] (Ac-CHAVYC-NH2; disulfide 1-6)
label: Y
//
molecule: CC(=O)N[C@H]1CSSC[C@@H](C(=O)N[C@H](C(N)=O)[C@@H](C)O)NC(=O)[C@H](C(C)C)NC(=O)[C@H](C)NC(=O)[C@H](Cc2c[nH]cn2)NC1=O [N—Ac—CHAVCT—NH2] (Ac-CHAVCT-NH2; disulfide 1-5)
label: N
